system: SF-268; test: NCI tumour cell line growth inhibition, 48 h
Active and inactive are the calls of the source. Cut-off read from the data, not from the text of the source: active = GI50 up to about 1.1 µM and inactive = higher.
test.readout: GI50

1) S=c1sc2c(n1-c1ccccc1)N=CNC2S (configuration not stated)
56.5 µM (inactive)
2) O=C(O)CNC(=O)c1ccc(-c2ccccc2)cc1
> 100 µM (inactive)
3) Cc1cc(C)c(OC(=O)Nc2cccc3ccccc23)c(-c2ccccc2)c1
12.6 µM (inactive)

Form field GI50 for item CCO[C@H]1C[C@@H](c2ccccc2)[C@]2(C)C[C@H](C(=O)OC)ON2O1 on SF-268: > 100 µM (inactive)

So the reported GI50 for COC(=O)Nc1nc2cc(Oc3ccc4nc(NC(=O)OC)[nH]c4c3)ccc2[nH]1 , on SF-268, turned out to be 1.36 µM (inactive)

Entry CC1=CC(O)C(O)C2(C)C1CC1OC(=O)C(O)C3C(C)C(O)C4(O)OCC13C42 (configuration not stated) , tested on SF-268, has a reported GI50 of 133 µM (inactive)

Entry O=c1[nH]nc(Cc2ccccc2)n1N=C1CCCCC1 ; assay system SF-268; GI50 recorded at > 100 µM (inactive)

----------
system: NCI-H522; experiment: NCI tumour cell line growth inhibition, 48 h
Calls of active or inactive are those of the source. No stated cut-off is given here; in the data, active = GI50 up to about 1.1 µM and inactive = higher.
test.readout: GI50

Example entries and their recorded answers appear below.
1) COC(=O)C(C#CCCCCC#CC(NC(=O)OCc1ccccc1)(C(=O)OC)C(F)(F)F)(NC(=O)OCc1ccccc1)C(F)(F)F (centres undefined)
> 100 µM (inactive)
2) O=C(/N=C1\SCCN1C(=O)C(C(F)(F)F)C(F)(F)F)C(C(F)(F)F)C(F)(F)F
> 100 µM (inactive)
3) CC(C)N(C(=O)C12C3C4C5(C#N)C3C1(I)C5C42I)C(C)C (centres undefined)
> 100 µM (inactive)
4) Cc1ccc(-c2cc(=O)c3cc(C)c(C)c(C(=O)O)c3o2)cc1[N+](=O)[O-]
> 100 µM (inactive)
5) Cn1c(N)nc(=O)c2c1N(C1OC(CO)C(O)C1O)CN2Cc1ccccc1 (centres undefined)
> 100 µM (inactive)
6) [N-]=[N+]=CC(=O)CCC(N)C(=O)O (centres undefined)
3.01 µM (inactive)
7) Cn1c2ccccc2c(=S)c2ccccc21
> 100 µM (inactive)
8) OCC1c2ccccc2-n2nc(-c3ccccc3)c(O)c21 (centres undefined)
22.1 µM (inactive)

Now for another entry.
Lab note: compound CCSCN(C)c1nc(N(C)C)nc(N(C)C)n1 tested on NCI-H522; recorded GI50 was 35 µM (inactive)

----------
test system: SW-620; experiment: NCI tumour cell line growth inhibition, 48 h
The source made the active and inactive calls. No stated cut-off is given here; in the data, active = GI50 up to about 1.1 µM and inactive = higher.
test.readout: GI50

Worked examples follow.
1. Cc1cccc(Cn2c3c(c4cc(O)ccc42)C(=O)c2ccccc2C3=O)c1
31 µM (inactive)
2. O=C1OC(C2=CC(=O)c3ccccc3C2=O)C(Cl)=C1Cl (stereo not drawn)
35.2 µM (inactive)

Alright, here's another compound for you.
CCOP(=O)(OCC)C(C)(C)N(C)/C(F)=N/C(F)(F)F on SW-620 gives GI50 = > 100 µM (inactive)

----------
test system: U-251; experiment: NCI tumour cell line growth inhibition, 48 h
Activity calls are given as the source filed them. No stated cut-off is given here; in the data, active = GI50 up to about 1.1 µM and inactive = higher.
Outcomes you can answer with include only these: active, inactive

1. CSc1nc2ccccc2c(=O)n1-c1cccc(C)c1
inactive
2. c1ccc2c(c1)c(N1CCCCC1)cc1nc3c(cc(N4CCCCC4)c4ccccc43)nc12
inactive
3. c1ccc2cc(-c3cc4ccccc4s3)ccc2c1
inactive
4. C=C1c2nc3ccccc3n2C=C(c2ccc(C)cc2)N1c1ccc(C)cc1
inactive
5. COc1ccc(/N=C/C=C/Nc2ccc(OC)cc2)cc1
inactive
6. COc1cccc2c1N[S@](=O)S2
inactive

Field: next compound
Q: What was the test verdict on CC(=O)OCC1(C)C(OC(C)=O)CCC2(C)C(CC(OC(C)=O)C3=CCOC3=O)C(O)(CO)CCC12 (stereo not given) ?
Ans: inactive

----------
test system: OVCAR-4; assay: NCI tumour cell line growth inhibition, 48 h
Active and inactive are the calls of the source. Rule as the data show it: active = GI50 up to about 1.1 µM and inactive = higher. Peptide text beside a SMILES is read from it. * marks the point of attachment. Cbz = O=C(OCc1ccccc1)*
Let's look at some compounds and their measured GI50.

# count of solved cases: 10
1) O=C(/C=C/c1ccccc1)CCN1CCOCC1
20.9 µM (inactive)
2) COC(=O)C1(C)CCc2c(OC)ccc(OC)c2C1=O (configuration not stated)
> 100 µM (inactive)
3) C[Si](C)(C)C1(Sc2ccccc2)SCCCS1
57.1 µM (inactive)
4) CS(=O)(=O)Nc1ccc(N2Cc3c[nH]c4ccc5nccc2c5c34)cc1
14 µM (inactive)
5) c1cc(C[S+]2CCCC2)oc1C[S+]1CCCC1
> 100 µM (inactive)
6) CC(C)(C)C(=O)O[C@H]1C=C[C@@H](O)[C@@H]2[C@H]1[C@@H]1C=C[C@H]2C1
21.2 µM (inactive)
7) CC(C)N(C(=O)C12C3C4C5(C#N)C3C1(I)C5C42I)C(C)C (configuration not stated)
> 45.5 µM (inactive)
8) O=C1COc2cc3c(cc2N1)SCCC(=O)N3
> 100 µM (inactive)
9) O=[N+]([O-])c1ccc(/C=C/c2ccc(/C=C/c3ccc([N+](=O)[O-])cc3[N+](=O)[O-])cc2)c([N+](=O)[O-])c1
> 100 µM (inactive)
10) CCOC(=O)C(C)NC(=O)C(C)NC(=O)C(C)NC(=O)C(C)NC(=O)C(C)NC(=O)C(C)NC(=O)C(C)NC(=O)OCc1ccccc1 (configuration not stated) (Cbz-AAAAAAA-OEt; configuration not given here)
> 100 µM (inactive)

GI50 reading for CC1(SCC(N)C(=O)O)CC(=O)NC1=O (configuration not stated) : > 100 µM (inactive)

Measured GI50 of COc1ccc(CNc2nc(NCc3ccc(OC)cc3)nc(NC(C)C)n2)cc1 : 20.3 µM (inactive)

Reported GI50 of COC(=O)C(Cc1c[nH]c2ccccc12)NC1=Nc2ccncc2S(=O)(=O)N1c1cccc(OC(C)C)c1 (configuration not stated) : 37.2 µM (inactive)

GI50 recorded for this compound, Cc1ccc(/C=C2\CN(C)CC3C2=NN(c2ccccc2)C3c2ccc(C)cc2)cc1 (configuration not stated) , is > 100 µM (inactive)

Documented GI50 of O=C(/N=C1\SCCN1C(=O)C(C(F)(F)F)C(F)(F)F)C(C(F)(F)F)C(F)(F)F : > 100 µM (inactive)

Given item CCCCNC(=S)Nc1nc(C(=O)NNC(=S)Nc2ccccc2)cs1 , the value recorded as its GI50 is > 100 µM (inactive)

Notebook: Nc1ccc(/N=N\c2ccc(-c3ccc(O)cc3)cc2)c2ccc(S(=O)(=O)O)cc12 , GI50 read as > 100 µM (inactive)

Record O=C(O)CN1C(=O)c2ccc(NC(=O)C(=O)O)cc2S1(=O)=O . Reported GI50: > 100 µM (inactive)

# GI50 of COC(=O)[C@@H]1[C@H](OC(C)=O)CCC2[C@@]3(C[C@@H](c4ccoc4)O[C@@H]3OC)[C@H](C)CC[C@]21C(=O)OC (some centres not stated) = > 25 µM (inactive)

Consider [O-][S+]1c2ccccc2N=C(c2cccs2)CC1c1ccccc1O (configuration not stated) . Its measured GI50 is > 100 µM (inactive)

The compound identified as COC(=O)[C@@H]1CN(C(C)=O)C(=O)N1C(=O)OCc1ccccc1 registered its GI50 at > 100 µM (inactive)

Recorded GI50 (compound c1ccc2c(c1)c(N1CCCCC1)cc1nc3c(cc(N4CCCCC4)c4ccccc43)nc12 ): > 100 µM (inactive)

Lookup result for CSC1=C(SC)C(=O)c2cn(C)c(=O)cc2C1=O ; measured GI50: 1.97 µM (inactive)

Quick note, GI50 for COc1cc2c(cc1OC)C(=O)/C(=C/c1ccccc1)CC2 landed at 62.4 µM (inactive)

Input Cc1cc(NCCCCCCCCCC[n+]2c(C)cc(N)c3ccccc32)c2ccccc2n1 . Output GI50: 1.42 µM (inactive)

The reported value for CC1=NN(c2ccccc2)C(=O)/C1=C\c1c(C)[nH]n(-c2ccccc2)c1=O in terms of GI50 is > 100 µM (inactive)

GI50 reported for this compound CC(C)[C@](O)(C(=O)OCC1CC[N+]2([O-])CC[C@@H](O)C12)[C@H](C)O (some centres not stated) : > 375 µM (inactive)

----------
test system: XF498; test: NCI tumour cell line growth inhibition, 48 h
The source made the active and inactive calls. Rule as the data show it: active = GI50 up to about 1.1 µM and inactive = higher.
test.readout: GI50

Example entries and their recorded answers appear below.
1. O=C(NCC(O)CNC(=O)C(F)(F)F)C(F)(F)F
> 100 µM (inactive)
2. CC(=O)OCC1(C)C(OC(C)=O)CCC2(C)C(CC(OC(C)=O)C3=CCOC3=O)C(O)(CO)CCC12 (stereo not given)
> 100 µM (inactive)
3. NC(=O)C1C(=O)Oc2cccnc21 (stereo not given)
> 100 µM (inactive)
4. CC(C#N)c1cn(S(=O)(=O)c2ccccc2)c2ccccc12 (stereo not given)
> 100 µM (inactive)

// GI50 lookup, molecule = COc1ccc(Cc2c(=O)[nH]nc3ccccc23)cc1 , result: 33 µM (inactive)

# credit: ChEMBL document CHEMBL1201862
